Assay: qHTS assay to identify small molecule antagonists of the glucocorticoid receptor (GR) signaling pathway - cell viability counter screen (AID 720693); note: % is set by controls: 0 for no effect and ±100 for the full control effect; nearly all actives have a fitted effect of over 55% in size
Settings: GR-bla HeLa viability, CellTiter-Glo luminescence, 18 h, with 5 nM dexamethasone present; series mostly up to 58.5 µM
Results filed as inconclusive are left out. Calls of active or inactive are those of the source. Calls come from the whole dose curve; as a rule, active = well fitted cell-killing curve with a large enough effect in the repeat runs; inconclusive = weak or mixed curves, or effect the other way; inactive = no such curve, though single readings can be large or run the other way.
result-type: viability change, negative = cytotoxic

NCC1(CC(=O)O)CCCCC1	inactive
Oc1ccc2c3c1O[C@H]1[C@@H](O)C=C[C@H]4[C@@H](C2)NCC[C@@]341	inactive
C/C=C/CC#N	inactive
CC(O)CCl (stereo not drawn)	inactive
COC(=O)[C@@H](N)CCCN/C(N)=N/[N+](=O)[O-]	inactive

I would be grateful if you could provide viability change, negative = cytotoxic for each of the following entries.
1. COc1ccc(C=O)cc1O
2. Oc1ccc(Cc2ccc(O)cc2)cc1

Response:
inactive
inactive

* * *

Test: qHTS RealTime-Glo MT Cell Viability Assay in HEK293 cells - 24 hour (AID 1224886); note: top concentration of the series differs between compounds; % is set by controls: 0 for no effect and ±100 for the full control effect; nearly all actives have a fitted effect of over 50% in size
Details: RealTime-Glo luminescence; series mostly up to 76.8 µM
Text: National Center for Advancing Translational Sciences [NCATS] NIH Chemical Genomics Center [NCGC] U.S. Environmental Protection Agency [EPA] National Institutes of Environmental Health Sciences [NIEHS] National Toxicology Program [NTP] U.S. Food and Drug Administration [FDA] Measure of cell viability is critical in the cell-base assay. Analysis of cell viability is necessary for the characterization of cell responses to cytotoxic drugs and environmental stress. […]
Records with an inconclusive call do not appear. Activity calls are given as the source filed them. The call rests on the fitted dose curve; in most records, active means well fitted cell-killing curve with a large enough effect in the repeat runs; inconclusive means weak or mixed curves, or effect the other way; inactive means flat fitted curve, though single readings scatter.
Assign a class; possible classes are t (active), f (inactive)

Observe how each entry below is paired with its result.
CCC1(c2cccc(O)c2)CCCCN(C)C1 (stereo unspecified)	f
CN(C)CCN(C)C	f
CC(C)[N+](C)(CCC(C(N)=O)(c1ccccc1)c1ccccc1)C(C)C	f
N[C@@H](Cc1ccc(Oc2cc(I)c(O)c(I)c2)c(I)c1)C(=O)O	f

Request: # lookup: test call for "CCCOc1nn(C(=O)NS(=O)(=O)c2ccccc2C(=O)OC)c(=O)n1C"
Response: f

Request: # lookup: test call for "O=c1[nH]oc2c1CCNC2"
Response: f

Request: # lookup: test call for "CCOC(=O)N(C)N=O"
Response: f

Request: # lookup: test call for O=C(NC(O)C(Cl)(Cl)Cl)NC(O)C(Cl)(Cl)Cl (stereo unspecified)
Response: f

Request: # lookup: test call for "CCOC(=O)CCl"
Response: f

Request: # lookup: test call for BrCC1CO1 (stereo unspecified)
Response: f

Request: # lookup: test call for "CCCCS(=O)(=O)Cl"
Response: f

Request: # lookup: test call for "CCN(CCO)CCn1c(Cc2ccccc2)nc2c1c(=O)n(C)c(=O)n2C"
Response: f

* * *

Biological target: Estrogen receptor (Homo sapiens) (UniProt P03372)
Sequence (P03372 whole entry, looked up): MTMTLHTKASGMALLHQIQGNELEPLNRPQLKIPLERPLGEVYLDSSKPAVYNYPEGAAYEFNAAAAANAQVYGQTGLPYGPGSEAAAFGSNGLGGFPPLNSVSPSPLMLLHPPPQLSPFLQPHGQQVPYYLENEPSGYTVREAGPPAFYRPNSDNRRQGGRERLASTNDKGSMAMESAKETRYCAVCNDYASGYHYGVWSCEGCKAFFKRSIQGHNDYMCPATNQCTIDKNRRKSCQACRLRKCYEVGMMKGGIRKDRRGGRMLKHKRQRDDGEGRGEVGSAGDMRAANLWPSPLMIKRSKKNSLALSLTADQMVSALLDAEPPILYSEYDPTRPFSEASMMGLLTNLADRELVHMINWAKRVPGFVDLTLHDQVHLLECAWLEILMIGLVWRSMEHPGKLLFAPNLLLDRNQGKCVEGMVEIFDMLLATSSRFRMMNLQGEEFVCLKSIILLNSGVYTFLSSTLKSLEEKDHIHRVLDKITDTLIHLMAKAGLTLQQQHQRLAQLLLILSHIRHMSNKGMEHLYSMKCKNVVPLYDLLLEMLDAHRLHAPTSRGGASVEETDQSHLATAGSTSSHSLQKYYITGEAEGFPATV
Assay: qHTS assay to identify small molecule agonists of the estrogen receptor alpha (ER-alpha) signaling pathway in the presence of an antagonist (AID 1259383); note: top concentration of the series differs between compounds; % is set by controls: 0 for no effect and ±100 for the full control effect; nearly all actives have a fitted effect of over 15% in size
Conditions: VM7Luc4E2 cells, ERE-luciferase, +ICI-182,780, 22 h; series mostly up to 92.4 µM
Calls of active or inactive are those of the source. The call rests on the fitted dose curve.
Assign a class; possible classes are Y = active, N = inactive

Observe how each entry below is paired with its result.
C1CN2CCC1CC2	N
O=P(O)(O)c1ccccc1	N
Clc1ccc(C(Cl)(Cl)Cl)cn1	N

Request: # lookup: test call for "CN=CNc1ccc(C)cc1C"
Response: N

Request: # lookup: test call for "CCc1ccc(C2CCNCC2)cc1"
Response: N

Request: # lookup: test call for "NC(=O)OCCCc1ccccc1"
Response: N

Request: # lookup: test call for OCC(Cl)CCl (centres undefined)
Response: N

Request: # lookup: test call for CNC(=O)NC(O)C(Cl)(Cl)Cl (centres undefined)
Response: N

* * *

Assay: qHTS assay for identifying genotoxic compounds that show differential cytotoxicity against isogenic chicken DT40 cell lines with known DNA damage response pathways - wild type cell line (AID 743012); note: nearly all actives have a fitted effect of over 60% in size
Details: DT40 wild type chicken cells viability, CellTiter-Glo, 40 h; series mostly up to 68.4 µM
Results filed as inconclusive are left out. Active and inactive are the calls of the source. Calls come from the whole dose curve; as a rule, active = well fitted cell-killing curve with a large enough effect in the repeat runs; inconclusive = weak or mixed curves, or effect the other way; inactive = no such curve, though single readings can be large or run the other way.
Assign a class; possible classes are active, inactive

Observe how each entry below is paired with its result.
Cc1ccc(Cl)c(O)c1	inactive
CN(C)CCc1c[nH]c2cccc(OP(=O)(O)O)c12	inactive
CC#Cc1cc(C)nc(Nc2ccccc2)n1	active

Request: # lookup: test call for "NC1(c2ccccc2)CCCCC1"
Response: active

Request: # lookup: test call for "COC(=O)c1ccccc1CS(=O)(=O)NC(=O)Nc1nc(OC)cc(OC)n1"
Response: inactive

* * *

Assay: qHTS assay for identifying genotoxic compounds that show differential cytotoxicity against isogenic chicken DT40 cell lines with known DNA damage response pathways - Rev3 mutant cell line (AID 743014); note: nearly all actives have a fitted effect of over 55% in size
Conditions: chicken DT40 Rev3-/- viability, CellTiter-Glo, 40 h; series mostly up to 68.4 µM
Inconclusive results are not listed. The source made the active and inactive calls. Calls follow the shape of the dose curve; as a rule, active = well fitted cell-killing curve with a large enough effect in the repeat runs; inconclusive = weak or mixed curves, or effect the other way; inactive = no such curve, though single readings can be large or run the other way.
Assign a class; possible classes are active, inactive

BrCCc1ccccc1	inactive
O=C/C=C/c1ccco1	inactive
COC(=O)c1ccc(CBr)cc1	inactive
O=C(O)C(F)(F)C(F)(F)C(F)(F)C(F)(F)C(F)(F)C(F)(F)F	inactive
Cc1ccc(S(=O)(=O)N[C@@H](CCCCN)C(=O)CCl)cc1	active

Request: # lookup: test call for "COP(=O)(OC)O/C(C)=C/C(=O)N(C)C"
Response: inactive

Request: # lookup: test call for "CON(C)C(=O)Nc1ccc(Br)c(Cl)c1"
Response: active

Request: # lookup: test call for "O=S1(=O)OCCO1"
Response: inactive

Request: # lookup: test call for "CCOC(=O)NC(C)(C)Cc1ccc(Cl)cc1"
Response: inactive

Request: # lookup: test call for "COc1cc(CCN)cc(OC)c1OC"
Response: inactive

* * *

Assay: qHTS assay to test for compound auto fluorescence at 590 nm (red) in HEK293 cell free culture (AID 720683); note: % is set by controls: 0 for no effect and ±100 for the full control effect
Conditions: cell-free medium autofluorescence, Ex540/Em590 red; series mostly up to 91.3 µM
Calls of active or inactive are those of the source. Calls come from the whole dose curve; as a rule, active = well fitted curve in the direction sought with a large enough effect in the repeat runs; inconclusive = weak or mixed curves; inactive = flat fitted curve, though single readings scatter.
result-type: fluorescence, % of fluorescent control

N[C@@H]1C[C@H]1c1ccccc1	inactive
C[C@@H](N)[C@@H](O)c1ccccc1	0.0965% [at 18.6 µM] (inactive)
CCC(=O)OC1(c2ccccc2)CCN(C)CC1	inactive
CC(C)[N+](C)(CCC(C(N)=O)(c1ccccc1)c1ccccc1)C(C)C	0.0889% [at 18.6 µM] (inactive)

Attention now shifts to the item below.
Reported fluorescence, % of fluorescent control for "N#CN=C1SCCN1Cc1ccc(Cl)nc1" was inactive

* * *

Target: Estrogen receptor (Homo sapiens)
Assay: qHTS assay to identify small molecule antagonists of the estrogen receptor alpha (ER-alpha) signaling pathway (AID 743069); note: % is set by controls: 0 for no effect and ±100 for the full control effect
Conditions: HEK293 ER-alpha-UAS-bla, beta-lactamase ratio, antagonist mode; series mostly up to 69.4 µM
Records with an inconclusive call do not appear. The source made the active and inactive calls. Calls follow the shape of the dose curve; as a rule, active = well fitted curve in the direction sought with a large enough effect in the signal ratio in the repeat runs (not every such curve was filed as active); inconclusive = weak or mixed curves, or effect the other way; inactive = no such curve, though single readings can be large or run the other way; the % refers to the signal ratio.
Assign a class; possible classes are Y (active), N (inactive)

Observe how each entry below is paired with its result.
CCOC(=O)CC(SP(=S)(OC)OC)C(=O)OCC (stereo not given)	N
CCOP(=S)(OCC)SCCl	N
C[C@H](N)C(=O)c1ccccc1	N

Request: # lookup: test call for "CC[C@H](N)c1ccccc1"
Response: N

Request: # lookup: test call for NC(=O)CS(=O)C(c1ccccc1)c1ccccc1 (stereo not given)
Response: N

Request: # lookup: test call for CC1N=C(N)OC1c1ccccc1 (stereo not given)
Response: N

Request: # lookup: test call for C=CC1(C)OC(=O)N(c2cc(Cl)cc(Cl)c2)C1=O (stereo not given)
Response: N

Request: # lookup: test call for "CCCC[N+](=O)[O-]"
Response: N

* * *

Biological target: Nuclear receptor subfamily 1 group I member 2 (Homo sapiens)
Assay: Human pregnane X receptor (PXR) small molecule agonists, qHTS assay (AID 1346982); note: % is set by controls: 0 for no effect and ±100 for the full control effect; nearly all actives have a fitted effect of over 35% in size
Conditions: PXR-Luc HepG2, CYP3A4 luciferase reporter, 24 h; series mostly up to 92.4 µM
Results filed as inconclusive are left out. Active and inactive are the calls of the source. The call rests on the fitted dose curve; in most records, active means well fitted activation curve with a large enough effect in the repeat runs; inconclusive means weak or mixed curves; inactive means no such curve, though single readings can be large or run the other way.
Assign a class; possible classes are true (1) (active), false (0) (inactive)

Observe how each entry below is paired with its result.
O=c1[nH]c2ccccc2o1	false (0)
CC(C)c1ccc(O)cc1	false (0)
O=C1CCCCC1Cl (stereo not drawn)	false (0)
CCCCS(=O)(=O)Cl	false (0)
CC1N=C(N)OC1c1ccccc1 (stereo not drawn)	false (0)

Request: # lookup: test call for "CN1COCN(Cc2cnc(Cl)s2)/C1=N\[N+](=O)[O-]"
Response: false (0)

* * *

Assay: qHTS assay to test for compound auto fluorescence at 590 nm (red) in HEK293 cells (AID 720679); note: % is set by controls: 0 for no effect and ±100 for the full control effect
Conditions: red autofluorescence 540/590 nm; series mostly up to 91.3 µM
Calls of active or inactive are those of the source. The call rests on the fitted dose curve; in most records, active means well fitted curve in the direction sought with a large enough effect in the repeat runs; inconclusive means weak or mixed curves; inactive means flat fitted curve, though single readings scatter.
result-type: fluorescence, % of fluorescent control

Here's what some known entries look like.
Cc1ccc(S(=O)(=O)N[C@@H](CCCCN)C(=O)CCl)cc1	inactive
O=[N+]([O-])c1cccc(CCl)c1	inactive
CCOC(=O)CC(SP(=S)(OC)OC)C(=O)OCC (configuration not stated)	inactive
C(COCC1CO1)OCC1CO1 (configuration not stated)	inactive

I would be grateful if you could provide fluorescence, % of fluorescent control for each of the following entries.
1. COc1cccc(C=O)c1
2. O=C1CCCCC1Cl (configuration not stated)
3. Oc1ccc(Cc2ccc(O)cc2)cc1
4. C=C(C)[C@H]1CN[C@H](C(=O)O)[C@H]1CC(=O)O
5. C[C@H](N)C(=O)c1ccccc1
6. O=C1CC(=O)NC(=O)N1
7. CC(=NC#N)N(C)Cc1ccc(Cl)nc1

Response:
1. inactive
2. inactive
3. inactive
4. inactive
5. inactive
6. inactive
7. inactive

I would be grateful if you could provide fluorescence, % of fluorescent control for each of the following entries.
1. CCC(=O)c1ccc(Cl)cc1
2. COP(=O)(OC)O/C(C)=C/C(=O)N(C)C
3. O=C(O)C(Cl)Br (configuration not stated)
4. CC(C)[N+](C)(CCC(C(N)=O)(c1ccccc1)c1ccccc1)C(C)C
5. CCNc1nc(Cl)nc(NC(C)(C)C)n1
6. CON(C)C(=O)Nc1ccc(Br)c(Cl)c1

Response:
1: inactive; 2: inactive; 3: inactive; 4: -0.12% [at 18.6 µM] (inactive); 5: inactive; 6: inactive

I would be grateful if you could provide fluorescence, % of fluorescent control for each of the following entries.
1. CCC1(c2ccccc2)CCC(=O)NC1=O (configuration not stated)
2. CCC(=O)OC1(c2ccccc2)CCN(C)CC1

Response:
inactive
inactive
